System: NCI-H23 complex spheroids with HUVEC/MSC, viability
Assay: Anticancer human tumor NCI-H23 cell line growth inhibition [RAS]; active = viability on the fitted dose curve at most 10% of control; inactive = the rest;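 note: spheroids exposed to compound for 7 days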
Conditions: second compound 0.00949 µM; first compound 0.0316 µM
Give one outcome, nothing more. List: active, inactive

Solved cases below.
stdin: Name the outcome recorded for CC(C)n1nc(-c2ccc3oc(N)nc3c2)c2c(N)ncnc21 + CCn1c(-c2cccnc2C(C)OC)c2c3cc(ccc31)N1CCOC(CC(NC(=O)C(C(C)C)N(C)C(=O)C3(F)CCN(C(=O)C#CC(C)(C)N(C)C)CC3)C(=O)N3CCCC(N3)C(=O)OCC(C)(C)C2)C1 in the assay.
stdout: inactive

stdin: Name the outcome recorded for Nc1ccn(C2OC(CO)C(O)C2(F)F)c(=O)n1 (stereo not drawn) + CCn1c(-c2cc(N3CCN(C)CC3)cnc2C(C)OC)c2c3cc(ccc31)-c1csc(n1)CC(NC(=O)C1CC1C)C(=O)N1CCCC(N1)C(=O)OCC(C)(C)C2 in the assay.
stdout: active

stdin: Name the outcome recorded for CCN1CCN(Cc2ccc(Nc3ncc(F)c(-c4cc(F)c5nc(C)n(C(C)C)c5c4)n3)nc2)CC1 + CCn1c(-c2cccnc2C(C)OC)c2c3cc(ccc31)N1CCOC(CC(NC(=O)C(C(C)C)N(C)C(=O)C3(F)CCN(C(=O)C#CC(C)(C)N(C)C)CC3)C(=O)N3CCCC(N3)C(=O)OCC(C)(C)C2)C1 in the assay.
stdout: inactive

stdin: Name the outcome recorded for CC(C)NCC(C(=O)N1CCN(c2ncnc3c2C(C)CC3O)CC1)c1ccc(Cl)cc1 (stereo not drawn) + CCn1c(-c2cc(N3CCN(C)CC3)cnc2C(C)OC)c2c3cc(ccc31)-c1csc(n1)CC(NC(=O)C1CC1C)C(=O)N1CCCC(N1)C(=O)OCC(C)(C)C2 in the assay.
stdout: inactive

stdin: Name the outcome recorded for NC1c2ccccc2OC12CCN(c1cnc3c(N4CCCc5ncccc54)n[nH]c3n1)CC2 (stereo not drawn) + CCn1c(-c2cccnc2C(C)OC)c2c3cc(ccc31)N1CCOC(CC(NC(=O)C(C(C)C)N(C)C(=O)C3(F)CCN(C(=O)C#CC(C)(C)N(C)C)CC3)C(=O)N3CCCC(N3)C(=O)OCC(C)(C)C2)C1 in the assay.
stdout: inactive

Continuing:
stdin: Name the outcome recorded for CC1(O)CCCC1n1c(=O)c(C(F)F)cc2cnc(NC3CCN(S(C)(=O)=O)CC3)nc21 (stereo not drawn) + CCn1c(-c2cc(N3CCN(C)CC3)cnc2C(C)OC)c2c3cc(ccc31)-c1csc(n1)CC(NC(=O)C1CC1C)C(=O)N1CCCC(N1)C(=O)OCC(C)(C)C2 in the assay.
stdout: inactive

stdin: Name the outcome recorded for CCN1CCN(Cc2ccc(Nc3ncc(F)c(-c4cc(F)c5nc(C)n(C(C)C)c5c4)n3)nc2)CC1 + CCn1c(-c2cc(N3CCN(C)CC3)cnc2C(C)OC)c2c3cc(ccc31)-c1csc(n1)CC(NC(=O)C1CC1C)C(=O)N1CCCC(N1)C(=O)OCC(C)(C)C2 in the assay.
stdout: inactive

stdin: Name the outcome recorded for C[C@@H](NC(=O)c1ncnc(N)c1Cl)c1ncc(C(=O)Nc2cc(C(F)(F)F)c(Cl)cn2)s1 + CCn1c(-c2cccnc2C(C)OC)c2c3cc(ccc31)N1CCOC(CC(NC(=O)C(C(C)C)N(C)C(=O)C3(F)CCN(C(=O)C#CC(C)(C)N(C)C)CC3)C(=O)N3CCCC(N3)C(=O)OCC(C)(C)C2)C1 in the assay.
stdout: inactive
